Molecular target: human JAK3 kinase domain (JH1) (Homo sapiens, UniProt P52333)
Construct: recombinantly generated catalytic kinase (also known as JH1) domain of human JAK1, JAK2, JAK3 and TYK2
Sequence (P52333 822-1111 limits assumed): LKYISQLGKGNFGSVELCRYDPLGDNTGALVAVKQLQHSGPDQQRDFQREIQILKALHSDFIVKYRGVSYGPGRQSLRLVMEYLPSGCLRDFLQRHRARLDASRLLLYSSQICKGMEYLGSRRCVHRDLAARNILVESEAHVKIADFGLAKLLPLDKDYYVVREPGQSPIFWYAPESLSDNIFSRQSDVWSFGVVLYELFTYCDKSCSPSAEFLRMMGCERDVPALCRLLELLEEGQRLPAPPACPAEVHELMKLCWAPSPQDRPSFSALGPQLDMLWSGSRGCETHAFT
Experiment: JH1 biochemical assay for JAK3 (ADP-Glo kinase assay, recombinant JH1 catalytic domain, JAK3-974 peptide, 4 μM ATP)
Conditions: JAK3 JH1, ADP-Glo
pIC50: −log10 of the molar value. Where a name gives a salt, the structure may show the parent alone.
Listing of recorded pIC50 by entry.

Please report the recorded pIC50 for C[C@@H]1CN(c2ccnn3cc(-n4cccn4)cc23)C(=O)[C@]1(C#N)C1CC1 [Example 335] .
6.00 to 7.00

Please report the recorded pIC50 for C[C@@H]1CN(c2ccnc3cc(-c4cnn(C5CC5)c4)oc23)C(=O)[C@]1(C#N)C1CC1 [Example 347] .
6.00 to 7.00

Query (compound): C[C@@H]1CN(c2nc(-c3cnn(CC4(C#N)CC4)c3)cn3ncc(F)c23)C(=O)[C@]1(C#N)C1CC1 [Example 302] ; field requested: pIC50
> 7.00

For C[C@@H]1CN(c2nc(-c3ccc(=O)n(C)c3)cn3nccc23)C(=O)[C@]1(C#N)C1CC1 [Example 245] , what is its reported pIC50?
> 7.00

Quick one: pIC50 for C[C@@H]1CN(c2ccnc3cc(-c4cnn(C56CC(C5)C6)c4)oc23)C(=O)[C@]1(C#N)C1CC1 [Example 344] ?
> 7.00

Which measured pIC50 value corresponds to CC(C)n1cc(-c2cc3nccc(N4C[C@@H](C)[C@@](C#N)(C5CC5)C4=O)c3o2)cn1 [Example 346] ?
> 7.00

Recorded pIC50 of COc1ncc(-c2cn3nccc3c(N3C[C@@H](C)[C@@](C#N)(C4CC4)C3=O)n2)cn1 [Example 240, trifluoroacetate] , please.
< 5.00

---

Target: human TYK2 kinase domain (JH1) (Homo sapiens, UniProt P29597)
Construct: recombinantly generated catalytic kinase (also known as JH1) domain of human JAK1, JAK2, JAK3 and TYK2
Sequence (P29597 897-1176 limits assumed): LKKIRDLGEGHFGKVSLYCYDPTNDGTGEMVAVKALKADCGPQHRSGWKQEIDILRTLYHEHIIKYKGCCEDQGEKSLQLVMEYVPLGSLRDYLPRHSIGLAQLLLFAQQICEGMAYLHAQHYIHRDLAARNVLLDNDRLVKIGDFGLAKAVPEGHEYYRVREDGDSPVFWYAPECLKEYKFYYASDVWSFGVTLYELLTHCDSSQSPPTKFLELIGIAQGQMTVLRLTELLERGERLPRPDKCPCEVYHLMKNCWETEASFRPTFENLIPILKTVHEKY
Experiment: JH1 biochemical assay for TYK2 (ADP-Glo kinase assay, recombinant JH1 catalytic domain, JAK3-974 peptide, 10 μM ATP)
Conditions: JH1 kinase domain, ADP-Glo
measured metric: IC50

Give human TYK2 kinase domain (JH1) (Homo sapiens, UniProt P29597) IC50 for `C[C@@H]1CN(c2ccnn3cc(-c4ccnc(C#N)c4)cc23)C(=O)[C@]1(C#N)C1CC1`
5 to 20 nM

Return IC50 measured with human TYK2 kinase domain (JH1) (Homo sapiens, UniProt P29597) given this compound: `C[C@@H]1CN(c2ccnn3cc(-c4cnn(CC#N)c4)cc23)C(=O)[C@]1(C#N)C1CC1`
< 5 nM

Item `C[C@@H]1CN(c2ccnn3cc(-c4cnn5c4CCCC5)cc23)C(=O)[C@]1(C#N)C1CC1` with human TYK2 kinase domain (JH1) (Homo sapiens, UniProt P29597) - IC50?
5 to 20 nM

I'm curious: which IC50 was measured for `Cc1ncc(-c2cc3c(N4C[C@@H](C)[C@@](C#N)(C5CC5)C4=O)ccnn3c2)cn1` tested on human TYK2 kinase domain (JH1) (Homo sapiens, UniProt P29597)?
50 to 100 nM

---

Listed here: items and their measured IC50.
Molecular target: human TYK2 kinase domain (JH1) (Homo sapiens, UniProt P29597)
Construct: recombinantly generated catalytic kinase (also known as JH1) domain of human JAK1, JAK2, JAK3 and TYK2
Experiment: JH1 biochemical assay for TYK2 (ADP-Glo kinase assay, recombinant JH1 catalytic domain, JAK3-974 peptide, 10 μM ATP)
Settings: JH1 kinase domain, ADP-Glo
Counter-ions that a name gives are not always drawn.

COc1cc(-c2cc3c(N4C[C@@H](C)[C@@](C#N)(C5CC5)C4=O)ccnn3c2)c(OC)nn1 [Example 98] :: 50 to 100 nM
C[C@@H]1CN(c2nc(-c3cccnc3)cn3nccc23)C(=O)[C@]1(C#N)C1CC1 [Example 194] :: < 5 nM
C[C@@H]1CN(c2ccnn3cc(-c4cccc(C(F)F)n4)cc23)C(=O)[C@]1(C#N)C1CC1 [Example 135, trifluoroacetate] :: 5 to 20 nM
C[C@@H]1CN(c2ccnn3cc(-c4ccc(C(F)(F)F)nc4)cc23)C(=O)[C@]1(C#N)C1CC1 [Example 74] :: 5 to 20 nM
C[C@@H]1CN(c2nc(-c3ccc(=O)n(C(F)F)c3)cn3nccc23)C(=O)[C@]1(C#N)C1CC1 [Example 210] :: < 5 nM

Item under review: Cc1c(-c2cn3nccc3c(N3C[C@@H](C)[C@@](C#N)(C4CC4)C3=O)n2)cnn1C [Example 199] . Reported IC50?
5 to 20 nM

Can you share its IC50? I mean this compound: C[C@@H]1CN(c2ccnn3cc(-c4cnn(C5CC5(F)F)c4)cc23)C(=O)[C@]1(C#N)C1CC1 (mixture of isomers) [Example 154]
< 5 nM

Field request: IC50 | item: Cc1nn(C)cc1-c1cc2c(N3C[C@@H](C)[C@@](C#N)(C4CC4)C3=O)ccnn2c1 [Example 165]
< 5 nM

Entry COc1ccc(-c2cc3c(N4C[C@@H](C)[C@@](C#N)(C5CC5)C4=O)ccnn3c2)nc1 [Example 145, trifluoroacetate] : reported IC50 = ?
5 to 20 nM

Consider the compound shown here: C[C@@H]1CN(c2ccnn3cc(-c4ccn(C)c(=O)c4)cc23)C(=O)[C@]1(C#N)C1CC1 [Example 79] What is its recorded IC50?
5 to 20 nM

Look at this compound and give its reported IC50. COc1cnc(-c2cc3c(N4C[C@@H](C)[C@@](C#N)(C5CC5)C4=O)ccnn3c2)cn1 [Example 132, trifluoroacetate]
50 to 100 nM

Reported IC50 for C[C@@H]1CN(c2ncnc3[nH]c(-c4cnn(C)c4)cc23)C(=O)[C@]1(C#N)C1CC1 [Example 6] : what is it?
50 to 100 nM

Suppose we examine the compound C[C@@H]1CN(c2ccnn3cc(-c4ccn(C)n4)cc23)C(=O)[C@]1(C#N)C1CC1 [Example 63] ; what IC50 value has been reported?
5 to 20 nM

State the recorded IC50 for this entry: C[C@@H]1CN(c2ccnn3cc(-c4ncn(C)n4)cc23)C(=O)[C@]1(C#N)C1CC1 [Example 115, trifluoroacetate]
> 100 nM

Can you share its IC50? I mean this compound: C[C@@H]1CN(c2nc(-c3cnc4c(c3)CC(=O)N4)cn3nccc23)C(=O)[C@]1(C#N)C1CC1 [Example 205]
< 5 nM

// returns reported IC50 for input [2H]C([2H])([2H])n1cc(-c2cc3c(N4C[C@@H](C)[C@@](C#N)(C5CC5)C4=O)ccnn3c2)cn1 [Example 164]
< 5 nM

Given the entry C[C@@H]1CN(c2ccnn3cc(-c4cc[nH]n4)cc23)C(=O)[C@]1(C#N)C1CC1 [Example 66, trifluoroacetate] , report its measured IC50.
5 to 20 nM

Param item = C[C@@H]1CN(c2ccnn3cc(-c4cnc5cc(C#N)ccn45)cc23)C(=O)[C@]1(C#N)C1CC1 [Example 103, trifluoroacetate] ; retrieve measured IC50.
5 to 20 nM
